This collection of values is drawn from patent US7910591B2.

Where a name gives a salt, the structure may show the parent alone.
property: melting point

• O=C1Nc2ccccc2C1CCCCN1CCN(c2cc(Cl)cc3c2OCCO3)CC1 (centres unmarked) (as salt: oxalate) [Example 6, Monooxalate] = 236 to 238 °C
• COc1cccc(N2CCN(CCCCC3C(=O)Nc4ccccc43)CC2)c1 (centres unmarked) (as salt: oxalate) [Example 9, Monooxalate] = 208 to 211 °C
• O=C1Nc2ccc(F)cc2C1CCCCN1CCN(c2ccccn2)CC1 (centres unmarked) [Example 7] = 132 to 134 °C
• COc1ccc(Cl)cc1N1CCN(CCCCC2C(=O)Nc3ccccc32)CC1 (centres unmarked) (as salt: hydrochloride) [Example 11, Monohydrochloride] = 91 to 94 °C
• O=C1Nc2ccc(F)cc2C1CCCCN1CCN(c2cc(Cl)cc3c2OCCO3)CC1 (centres unmarked) [Example 10] = 146 to 148 °C

I'd like to know its melting point. The compound in question is O=C1Nc2cc(F)ccc2C1CCCCN1CCN(c2ccccn2)CC1 (centres unmarked) [Example 8]
136 to 137 °C

I'd like to know its melting point. The compound in question is COc1cccc(N2CCN(CCCCC3C(=O)Nc4ccc(F)cc43)CC2)c1 (centres unmarked) (as salt: oxalate) [Example 12]
211 to 214 °C

I'd like to know its melting point. The compound in question is O=C1Nc2ccccc2C1CCCCN1CCN(c2ccccn2)CC1 (centres unmarked) [Example 5]
131 to 132 °C
